system: human red blood cells (hRBC's); assay: Hemolysis assay; format: cell-based; settings: red cells of human
# Hemolysis HC10 listing for each entry below
Write the number in µg/mL without appending the unit.

CCCCCCCCCCCCCCCC(=O)N[C@@H](CCCCN)CN(CC(=O)N[C@@H](CCCCN)CN(CC(N)=O)C(=O)CCCN)C(=O)CCCN	40

Challenge: // Hemolysis HC10 lookup, key: "CCCCCCCCCCCCCCCC(=O)N[C@@H](C)CN(CC(=O)N[C@@H](C)CN(CC(=O)N[C@@H](CCC(=O)O)CN(CC(=O)N[C@@H](CCC(=O)O)CN(CC(=O)N[C@@H](CCC(=O)O)CN(CC(N)=O)C(=O)CC(=O)O)C(=O)CC(=O)O)C(=O)CC(=O)O)C(C)=O)C(C)=O"
Response given: 250

Challenge: Could you do the same for "CCCCCCCCCCCCCCCC(=O)N[C@@H](C)CN(CC(=O)N[C@@H](C)CN(CC(=O)N[C@@H](CC(C)C)CN(CC(=O)N[C@@H](CC(C)C)CN(CC(=O)N[C@@H](CC(C)C)CN(CC(N)=O)C(=O)CCCN)C(=O)CCCN)C(=O)CCCN)C(C)=O)C(C)=O" , please?
Response given: 60

Challenge: Follow-up item: "CCCCCCCCCCCCCCCC(=O)N[C@@H](C)CN(CC(=O)N[C@@H](C)CN(CC(=O)N[C@@H](CCCCN)CN(CC(=O)N[C@@H](CCCCN)CN(CC(=O)N[C@@H](CCCCN)CN(CC(N)=O)C(=O)CCCN)C(=O)CCCN)C(=O)CCCN)C(C)=O)C(C)=O"
Response given: 200

----------
system: human red blood cells (hRBC's); test: Hemolysis assay; type: cell-based
Measurement kind: Hemolysis (H50)

Challenge: Dear colleague, I am looking for the recorded Hemolysis (H50) of the following molecule: CC(C)CCC(=O)N1CC(=O)N[C@@H](Cc2ccccc2)CN(C(=O)CCC(C)C)CC(=O)N[C@@H](CCCCN)CN(C(=O)CCc2ccccc2)CC(=O)N[C@@H](CCCCN)CN(C(=O)CCc2ccccc2)CC(=O)N[C@@H](CCCCN)CN(C(=O)CCc2ccccc2)CC(=O)N[C@@H](CCCCN)CN(C(=O)CCc2ccccc2)CC(=O)N[C@@H](Cc2ccccc2)CN(CC(N)=O)C(=O)CCC(=O)N[C@@H](Cc2ccccc2)C1 [γAA5]
Response given: 100 µg/mL

Challenge: Further, for CCCCCCCCCCCCCCCC(=O)N[C@@H](C)CN(CC(=O)N[C@@H](CCCCN)CN(CC(=O)N[C@@H](Cc1ccccc1)CN(CC(=O)N[C@@H](Cc1ccccc1)CN(CC(N)=O)C(=O)CCc1c[nH]cn1)C(=O)CCc1c[nH]cn1)C(=O)CCCN)C(C)=O [γAA3] ?
Response given: 150 µg/mL

Challenge: Another: CCCCCCCCCCCCCCCC(=O)N[C@@H](C)CN(CC(=O)N[C@@H](C)CN(CC(=O)N[C@@H](CC(C)C)CN(CC(=O)N[C@@H](CC(C)C)CN(CC(=O)N[C@@H](CC(C)C)CN(CC(N)=O)C(=O)CCCN)C(=O)CCCN)C(=O)CCCN)C(C)=O)C(C)=O [γAA2]
Response given: >500 µg/mL

Challenge: Param item: CC(C)C[C@@H](CN(CC(=O)N[C@@H](CCCCN)CN(CC(=O)N[C@@H](CCCCN)CN(CC(=O)N[C@@H](CCCCN)CN(CC(N)=O)C(=O)CCc1ccccc1)C(=O)CCc1ccccc1)C(=O)CCc1ccccc1)C(=O)CCc1ccccc1)NC(=O)CN(C[C@H](CCCCN)NC(=O)CN(C[C@H](CCCCN)NC(=O)CN(C[C@@H](N)CCCCN)C(=O)CCc1ccccc1)C(=O)CCc1ccccc1)C(=O)CCc1ccccc1 [γ4]
Response given: >500 µg/mL

----------
Listed compounds paired with reported MIC, Fungi, C. albicans
test system: C. albicans (ATCC 10231); settings: ATCC 10231

CCCCCCCC/C=C\CCCCCCCC(=O)N[C@@H](CCCCN)CN(CC(N)=O)C(=O)CCCN	2 µg/mL

Challenge: Which MIC, Fungi, C. albicans is reported for this compound? "CCCCCCCCCCCCCCCC(=O)N[C@@H](CCCCN)CN(CC(=O)N[C@@H](CCCCN)CN(CC(=O)N[C@@H](CCCCN)CN(CC(N)=O)C(=O)CCCN)C(=O)CCCN)C(=O)CCCN"
Response given: 2 µg/mL

Challenge: # iterate: "CCCCCCCCCCCCCCCC(=O)N[C@@H](CCCCN)CN(CC(=O)N[C@@H](CCCCN)CN(CC(N)=O)C(=O)CCCN)C(=O)CCCN"
Response given: 2 µg/mL

Challenge: How about "CC(=O)N(CC(=O)N[C@@H](C)CN(CC(=O)N[C@@H](CC(C)C)CN(CC(=O)N[C@@H](CC(C)C)CN(CC(=O)N[C@@H](CC(C)C)CN(CC(N)=O)C(=O)CCCN)C(=O)CCCN)C(=O)CCCN)C(C)=O)C[C@H](C)N" ?
Response given: >100 µg/mL

----------
This listing pairs molecules with measured MIC, Gram positive S. aureus.
test system: methicillin-resistant S. aureus (ATCC 33592); details: Table 7
Unit µg/mL implied. Number only.

As a guide, the following entries are already answered.
CCCCCCCC/C=C\CCCCCCCC(=O)N[C@@H](CCCCN)C(=O)N[C@@H](CCCCN)CN(CC(N)=O)C(=O)CCCN [Sequence 11]	5
CCCCCCCCCCCCCCCC(=O)N[C@@H](C)CN(CC(=O)N[C@@H](C)CN(CC(=O)N[C@@H](CC(C)C)CN(CC(=O)N[C@@H](CC(C)C)CN(CC(=O)N[C@@H](CC(C)C)CN(CC(N)=O)C(=O)CCCN)C(=O)CCCN)C(=O)CCCN)C(C)=O)C(C)=O [Sequence 6]	4

Challenge: Name the recorded MIC, Gram positive S. aureus for CCCCCCCC/C=C\CCCCCCCC(=O)N[C@@H](CCCCN)CN(CC(N)=O)C(=O)CCCN [Sequence 10] .
Response given: 4

----------
Item-by-item account of MIC, Gram positive S. epidermidis
test system: multi-drug resistant S. epidermidis (RP62A); conditions: Table 7
Just so you know, I need the unit written after the number.

Examples with answers:
CC(C)C[C@@H](CN(CC(=O)N[C@@H](CCCCN)CN(CC(N)=O)C(=O)CCc1ccccc1)C(=O)CCc1ccccc1)NC(=O)CN(C[C@H](CCCCN)NC(=O)CN(C[C@H](CCCCN)NC(=O)CN(C[C@H](CC(C)C)NC(=O)CN(C[C@H](CCCCN)NC(=O)CN(C[C@@H](N)CCCCN)C(=O)CCc1ccccc1)C(=O)CCc1ccccc1)C(=O)CCc1ccccc1)C(=O)CCc1ccccc1)C(=O)CCc1ccccc1	5 µg/mL
CCCCCCCC/C=C\CCCCCCCC(=O)N[C@@H](CCCCN)C(=O)N[C@@H](CCCCN)CN(CC(N)=O)C(=O)CCCN	2 µg/mL
CCCCCCCCCCCCCCCC(=O)N[C@@H](C)CN(CC(=O)N[C@@H](C)CN(CC(=O)N[C@@H](CCCCN)CN(CC(=O)N[C@@H](CCCCN)CN(CC(=O)N[C@@H](CCCCN)CN(CC(N)=O)C(=O)CCCN)C(=O)CCCN)C(=O)CCCN)C(C)=O)C(C)=O	10 µg/mL

Challenge: Can you share its MIC, Gram positive S. epidermidis? I mean this compound: "CCCCCCCCCCCCCCCC(=O)N[C@@H](CCCCN)CN(CC(N)=O)C(=O)CCCN"
Response given: 2 µg/mL

----------
// endpoint MIC, K. pneumoniae (causing pneumonia) / system K. pneumoniae (ATCC 13383)

Completed entries (count: 5):
NCCCC[C@@H](C(N)=O)N(CCNC(=O)[C@H](CCCCN)N(CCNC(=O)[C@H](CCCCN)N(CCNC(=O)[C@H](CCCCN)N(CCNC(=O)[C@H](CCCCN)N(CCNC(=O)[C@H](CCCCN)N(CCNC(=O)[C@H](CCCCN)N(CCN)C(=O)CCc1ccccc1)C(=O)CCc1ccccc1)C(=O)CCc1ccccc1)C(=O)CCc1ccccc1)C(=O)CCc1ccccc1)C(=O)CCc1ccccc1)C(=O)CCc1ccccc1 [α1, reference compound]	>100 µg/mL
NCCCC[C@H](N)CN(CC(=O)N[C@@H](CCCCN)CN(CC(=O)N[C@@H](CCCCN)CN(CC(N)=O)C(=O)CCc1ccccc1)C(=O)CCc1ccccc1)C(=O)CCc1ccccc1	>100 µg/mL
CCCCCCCCCCCCCCCC(=O)N[C@@H](C)CN(CC(=O)N[C@@H](CCCCN)CN(CC(=O)N[C@@H](Cc1ccccc1)CN(CC(=O)N[C@@H](Cc1ccccc1)CN(CC(N)=O)C(=O)CCc1c[nH]cn1)C(=O)CCc1c[nH]cn1)C(=O)CCCN)C(C)=O	12.5 to 25 µg/mL
NCCCC[C@H](N)CN(CC(=O)N[C@@H](CCCCN)CN(CC(=O)N[C@@H](CCCCN)CN(CC(=O)N[C@@H](CCCCN)CN(CC(=O)N[C@@H](CCCCN)CN(CC(N)=O)C(=O)CCc1ccccc1)C(=O)CCc1ccccc1)C(=O)CCc1ccccc1)C(=O)CCc1ccccc1)C(=O)CCc1ccccc1	>100 µg/mL
CC(C)CCC(=O)N1CC(=O)N[C@@H](Cc2ccccc2)CN(C(=O)CCC(C)C)CC(=O)N[C@@H](Cc2ccccc2)CN(C(=O)CCC(C)C)CC(=O)N[C@@H](CCCCN)CN(C(=O)CCc2ccccc2)CC(=O)N[C@@H](CCCCN)CN(C(=O)CCc2ccccc2)CC(=O)N[C@@H](CCCCN)CN(C(=O)CCc2ccccc2)CC(=O)N[C@@H](Cc2ccccc2)CN(CC(N)=O)C(=O)CCC(=O)N[C@@H](Cc2ccccc2)C1	10 µg/mL

Challenge: State the recorded MIC, K. pneumoniae (causing pneumonia) for this entry: "CC(C)CCC(=O)N1CC(=O)N[C@@H](Cc2ccccc2)CN(C(=O)CCC(C)C)CC(=O)N[C@@H](CCCCN)CN(C(=O)CCc2ccccc2)CC(=O)N[C@@H](CCCCN)CN(C(=O)CCc2ccccc2)CC(=O)N[C@@H](CCCCN)CN(C(=O)CCc2ccccc2)CC(=O)N[C@@H](CCCCN)CN(C(=O)CCc2ccccc2)CC(=O)N[C@@H](Cc2ccccc2)CN(CC(N)=O)C(=O)CCC(=O)N[C@@H](Cc2ccccc2)C1"
Response given: 8 µg/mL
